Entries and their viability values follow.
# assay_details: growth suppression of beta-catenin knockout HCT116, pilot screen, human colon tumor cells (AID 823);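 note: 0% = wells killed by 20 µM Hyamine and 100% = untreated DMSO cell wells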
# protocol_conditions: CellTiter-Glo, 60 h, at 10 µM, hits give low values
Results filed as inconclusive are left out. Active and inactive are the calls of the source.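 Rule for the calls: active = cell viability at or below a set limit in both duplicate runs, the limit being the all-compound median minus 4 SD (cut at about 23% in these data, passing the limit was not always enough); inconclusive = no clear call, values can overlap the other calls; inactive = the rest.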

INSERT INTO measurements (compound, readout_type, value_reported) VALUES
  ('Cn1c(Cn2c(=O)sc3ccccc32)nnc1SCC(=O)Nc1ccccc1F', 'viability', '104% (inactive)'),
  ('Cc1cc(C)n(-c2nnc(C)n2/N=C/c2cc(Br)ccc2OCc2ccccc2)n1', 'viability', '12.4% (active)'),
  ('COc1ccc(OC)c(NC(=O)C2CCCN(S(=O)(=O)c3cccc4cccnc34)C2)c1 (stereo not given)', 'viability', '87.3% (inactive)'),
  ('COc1ccc(N2C(=O)CCC(C(=O)N3CCC(C(N)=O)CC3)C2c2ccc(F)cc2)cc1 (stereo not given)', 'viability', '99.6% (inactive)'),
  ('COc1ccc(C2=NOC(C(=O)Nc3cc(C)nn3-c3ccccc3)C2)cc1OC (stereo not given)', 'viability', '103% (inactive)');

## Task Consider the compound shown here: O=C1N/C(=N/c2ccccn2)SC1Cc1ccccc1 (stereo not given) What is its recorded viability?
## Result 102% (inactive)

## Task Requested read-out: viability. Entry: C=CCSc1nnc2c(n1)OC(c1cccnc1)Nc1ccccc1-2 (stereo not given)
## Result 95.5% (inactive)

###

# viability per record follows
# assay_details: SK-BR-3 cell growth inhibitors, pilot screen, 24 h, human (AID 572);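 note: compound exposure lasted between 18 and 24 h rather than exactly 24 h; 100% = carrier-treated control wells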
# protocol_conditions: SK-BR-3 viability, CellTiter-Glo luminescence, at 10 µM, hits give low values
The figure you give is taken to be in %; do not add the unit.

## Task I am curious: what viability value has been reported for `COc1cccc(CNC(=O)C2CCN(C(=O)N(C)C)CC2)c1` ?
## Result 97.5

## Task Give the measured viability of CC(C[N+](C)(C)C)OC(N)=O (stereo unspecified) .
## Result 101

## Task For the compound shown here, `CCc1nnc(NC(=O)c2ccc(S(=O)(=O)NC3CCCCC3)cc2)s1` , give the reported viability.
## Result 86.5

## Task Which viability value belongs to `CCOC(=O)CC12CN3CN(C1)CC(CC(=O)OCC)(C3)C2=O` ?
## Result 94

## Task Which viability reading was recorded for the compound Cc1[nH]c(=O)[nH]c(=O)c1S(=O)(=O)N1c2ccc(F)cc2CCC1C (stereo unspecified) ?
## Result 97.5

## Task What value of viability has been reported for the following compound? `COC(=O)c1cnn2c(C(F)(F)F)cc(-c3ccco3)nc12`
## Result 99

###

# assay_details: inhibitors of the yeast RAM network, pilot screen, dse1pr::URA3 reporter, 5-FOA selection (AID 869);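 note: 0% = DMSO wells with no growth and 100% = 10 µM 1-NA-PP1 with full growth; RAM network block rescues cells from 5-FOA so hits raise OD615 growth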
# protocol_conditions: S. cerevisiae dse1pr::URA3 5-FOA growth, OD615, 2 d; at 10 µM; hits give high values; strain carries analog-sensitive mutant Cbk1 kinase
Activity calls are given as the source filed them.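 How the source made its calls: active means inhibition over a set limit, the all-compound mean plus 3 SD, in both replicate runs; inconclusive means over that limit in just one replicate run; inactive means at or under that limit in both runs.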
Quick reference: inhibition of the listed items.

Example entries and their recorded answers appear below.
INSERT INTO results (molecule, readout_type, value_reported) VALUES
  ('O=C(NCN1CCc2ccccc2C1)c1cnccn1', 'inhibition', '3.92% (inactive)'),
  ('CCOC(=O)N1CCN(S(=O)(=O)c2cc(Br)cc3c2N(C(=O)C2CC2)CC3)CC1', 'inhibition', '0.715% (inactive)'),
  ('O=C(N=c1nc2ccccn2s1)c1ccccc1', 'inhibition', '3.28% (inactive)'),
  ('CCc1cc2c(=O)c(-c3nc4ccccc4n3C)c(C(C)C)oc2c(CN2CCN(C)CC2)c1O', 'inhibition', '1.74% (inactive)'),
  ('CC(Sc1nc2ccccc2s1)C(=O)N1CCOCC1 (stereo not drawn)', 'inhibition', '1.84% (inactive)');

## Task Need inhibition of `Cc1nc(N2CCCCC2)c2sc(=S)n(C)c2n1` , thanks.
## Result 0.955% (inactive)

## Task Returns the measured inhibition for the input molecule. Input: O=C(NCCC1=CCCCC1)C1CCCN(S(=O)(=O)c2cccc3cccnc23)C1 (stereo not drawn)
## Result 2.14% (inactive)

## Task What value of inhibition has been recorded for this entry: `O=C1c2ccccc2C(=O)N1CCCC(=O)N1CCc2ccccc21`
## Result 2.44% (inactive)

## Task Fill in: inhibition of O=C(Nc1cccnc1)C(Cc1ccccc1)n1cccc1 (stereo not drawn) is ___
## Result 0.44% (inactive)

## Task Name the reported inhibition value associated with the molecule `CCN(CC)C(=O)CSc1nsc(SCC(=O)N(CC)CC)c1C#N`
## Result 1.22% (inactive)

## Task Query: inhibition; subject: `Cn1c(SCC(=O)N2CCCCCC2)nc2c([nH]c3ccccc32)c1=O`
## Result 3.46% (inactive)

## Task Quick one: inhibition of `CC(C)c1nc2sc3c(SCC(=O)NCc4ccco4)ncnc3c2c2c1CCC2` ?
## Result 1.31% (inactive)

## Task inhibition lookup needed for `COc1cc(/C=N/n2cnnc2)ccc1OC(=O)c1cccnc1` , thanks.
## Result 0.985% (inactive)

## Task May I ask what inhibition has been recorded for CCOC(=O)N1CCN(C(=O)c2oc3ccc(S(=O)(=O)N4CC(C)CC(C)C4)cc3c2C)CC1 (stereo not drawn) ?
## Result 1.43% (inactive)

## Task Need inhibition of COCCOC(=O)C1=C(C)NC2=C(C(=O)CCC2)C1c1ccc2c(c1)OCO2 (stereo not drawn) , thanks.
## Result 1.08% (inactive)

## Task I'd like to know its inhibition. The molecule in question is O=C(C1=C(O)C(=O)N(c2ncccn2)C1c1cccs1)c1ccco1 (stereo not drawn)
## Result 1.54% (inactive)

## Task Name the recorded inhibition for COc1ccc(C2C3=C(CC(C)(C)CC3=O)Nc3n[nH]c(C)c32)cc1 (stereo not drawn) .
## Result 1.51% (inactive)

## Task inhibition lookup needed for `N#CCCN(CCC#N)C(=O)c1ccc(Cl)cc1` , thanks.
## Result 1.3% (inactive)

###

# assay_details: OD615 S. cerevisiae growth inhibition, permissive medium, pilot counter-assay, permissive growth control for S. cerevisiae lifespan shortening project (AID 705)
# protocol_conditions: OD615, 24 h, at 10 µM, hits give high values
Active and inactive are the calls of the source.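 How the source made its calls: active means growth inhibition above 25% in both replicates, a cutoff set 3 SD above the mean; inconclusive means above 25% in only one replicate; inactive means the rest.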
Each item that follows carries a reported growth inhibition.

Field: example entries. Status: answers known.
INSERT INTO results (compound, value_reported) VALUES
  ('COc1cc(C2/C(=C(\O)c3cc(C)ccc3C)C(=O)C(=O)N2CCN(C)C)ccc1O (stereo not given)', '-21.2% (inactive)'),
  ('COc1cccc(C2CC(c3cccc(C)c3)n3ncnc3N2)c1 (stereo not given)', '-9.14% (inactive)'),
  ('Cc1ccc(S(=O)(=O)N2CCCC2C(=O)Nc2nc3ccccc3s2)cc1 (stereo not given)', '-4.55% (inactive)'),
  ('CC(C)OCCCNC(=O)c1ccc(NC(=O)C2CCCO2)cc1 (stereo not given)', '-12.9% (inactive)');

# evaluate next
## Task If you can, please state the reported growth inhibition value of COc1cc(C(c2sc3ncnn3c2O)N2CCN(c3ccccc3F)CC2)cc(OC)c1OC (stereo not given) .
## Result 1.67% (inactive)

###

# assay_details: viability gain of MRP-1-high H69AR cells under doxorubicin, pilot screen, MRP-1 activator project, CellTiter-Glo, duplicate (AID 807);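 note: compound pretreatment 18-22 h then 72 h combined with doxorubicin; 0% = doxorubicin alone and 100% = vehicle without doxorubicin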
# protocol_conditions: H69AR viability with doxorubicin, CellTiter-Glo luminescence; at 10 µM; hits give high values
readout_type: viability increase (%)
Write the answer as a number in %, unit excluded.

These solved cases illustrate the format of a correct answer.
INSERT INTO assay_data (compound, readout_type, unit_info, value_reported) VALUES
  ('Cc1cccc(NC(=O)NCCN2C(=O)C3C4C=CC(C4)C3C2=O)c1 (stereo unspecified)', 'viability increase', '%', -1.25),
  ('Cc1ccc(CC(=O)N2CCC(c3nc4c(nnn4Cc4ccccc4)c(=O)[nH]3)CC2)cc1', 'viability increase', '%', -1.07),
  ('COc1cccc(-c2cc(C(F)(F)F)nc(N3CCOCC3)n2)c1', 'viability increase', '%', 0.16),
  ('N#Cc1c(-c2ccccc2)cc(-c2ccco2)c(C#N)c1N', 'viability increase', '%', -7.79),
  ('COc1ccc(OC)c(NC(=O)C(CC(C)C)NC(=O)C2CCCCC2)c1 (stereo unspecified)', 'viability increase', '%', -5.29);

Would you kindly look at the next entry?
## Task What does the record list as viability increase for `COc1ccc(OC)c(CCNC(=O)C2CCN(c3nnc(-n4cccc4)s3)CC2)c1` ?
## Result -4.48

###

# assay_details: growth suppression of PTEN-deleted HCT116, pilot screen, cell-based, HCT116 clonal line, CellTiter-Glo (AID 824);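 note: 0% = 20 µM Hyamine control and 100% = vehicle cell control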
# protocol_conditions: 60 h, at 10 µM
Inconclusive results are not listed. Activity calls are given as the source filed them.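 Rule for the calls: active = viability at or below 27.92% in each of two runs, the all-compound median minus 4 SD; inconclusive = no clear call, values can overlap the other calls; inactive = the rest.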
One label from this list, please: TRUE (active), FALSE (inactive)

INSERT INTO assay_data (molecule, assigned_label) VALUES
  ('COC(=O)C1CCN(C(c2cccs2)c2sc3nc(C)nn3c2O)CC1 (centres undefined)', 'FALSE'),
  ('Cc1cccc(N(C)c2cc(C)nc3ncnn23)c1', 'FALSE');

## Task Can you look up the reported call for `CCOC(=O)c1c(CN2CCCCC2)n(C)c2ccc(OC)c(S(=O)(=O)c3ccccc3)c12` for me?
## Result FALSE

## Task So what was the verdict on `CCc1c(C)nc(SCC(=O)Nc2ccc(Br)cc2)[nH]c1=O` in this test?
## Result FALSE

## Task Any idea what this test logged for Cc1ccc(N2CC(C(=O)Nc3cccc(F)c3)CC2=O)cc1 (centres undefined) ?
## Result FALSE

## Task For `CCCCn1c(=NC(=O)c2ccco2)c(C(=O)OCC)cc2c(=O)n3ccccc3nc21` , which call appears in the assay record?
## Result TRUE

## Task What did this assay record as the result for CCc1ccc(C2CC(=O)N3CN(c4ccccc4)CSC3=C2C#N)cc1 (centres undefined) ?
## Result FALSE

## Task GET /call?item= `CCS(=O)(=O)N1CCN(C(=O)c2cccs2)CC1` returns the recorded outcome of this test.
## Result FALSE

## Task What did the test return for `O=C(NCCO)c1ccc2[nH]c3c(c2c1)CCCC3` ?
## Result FALSE

Data credit: PubChem BioAssay
